test_target: Poly [ADP-ribose] polymerase 2 (Homo sapiens)
Sequence (Q9UGN5 whole entry): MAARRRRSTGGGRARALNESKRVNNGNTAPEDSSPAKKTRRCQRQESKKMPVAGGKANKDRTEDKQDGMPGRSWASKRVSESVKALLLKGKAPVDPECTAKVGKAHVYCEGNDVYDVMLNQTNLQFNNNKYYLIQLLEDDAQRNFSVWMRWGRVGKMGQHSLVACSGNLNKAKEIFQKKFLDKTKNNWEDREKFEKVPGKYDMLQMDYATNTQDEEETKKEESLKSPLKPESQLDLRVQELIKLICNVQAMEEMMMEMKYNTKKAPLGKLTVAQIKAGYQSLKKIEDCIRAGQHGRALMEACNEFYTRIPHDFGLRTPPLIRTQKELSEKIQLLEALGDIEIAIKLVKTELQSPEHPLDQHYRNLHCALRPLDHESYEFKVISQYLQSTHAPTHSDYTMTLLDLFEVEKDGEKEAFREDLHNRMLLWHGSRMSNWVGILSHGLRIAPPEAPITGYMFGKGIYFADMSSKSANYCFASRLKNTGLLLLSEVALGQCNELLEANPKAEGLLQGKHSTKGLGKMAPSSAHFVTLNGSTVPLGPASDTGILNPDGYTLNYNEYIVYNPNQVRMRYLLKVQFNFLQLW
protocol_description: Inhibition of recombinant human PARP-2 expressed in Escherichia coli BL21 (DE3) using sheared DNA as substrate in presence of biotinylated NAD after 1 hr by ELISA
measured_property: IC50

Before answering, review these 4 worked examples.
## Input Request the reported IC50 associated with `O=C(Nc1cc(Cn2c(=O)[nH]c(=O)c3ccccc32)cnc1F)[C@H]1CCN(C2CCC(F)(F)CC2)C1`
## Output 11.9 nM

## Input Next record, please: `CC(C)(C)OC(=O)N1CC[C@H](C(=O)Nc2cc(Cn3c(=O)[nH]c(=O)c4ccccc43)cnc2F)C1`
## Output 8.6 nM

## Input Next record, please: `CC(C)(C)OC(=O)N1CC[C@H](C(=O)Nc2cc(Cn3c(=O)[nH]c(=O)c4ccccc43)ccc2[N+](=O)[O-])C1`
## Output > 100 nM

## Input Next record, please: `O=C(Nc1cc(Cn2c(=O)[nH]c(=O)c3ccccc32)ccc1Cl)[C@H]1CCNC1`
## Output > 100 nM

***
## Input Request the reported IC50 associated with `O=C(Nc1cc(Cn2c(=O)[nH]c(=O)c3ccccc32)cnc1F)[C@H]1CCN(CC(F)(F)F)C1`
## Output 11.5 nM

## Input Next record, please: `CC(C)(C)OC(=O)N1CC[C@H](C(=O)Nc2cc(Cn3c(=O)[nH]c(=O)c4ccccc43)ccc2O)C1`
## Output > 100 nM

## Input Next record, please: `O=C(Nc1cc(Cn2c(=O)[nH]c(=O)c3ccccc32)cnc1F)[C@H]1CCN(Cc2ccncc2)C1`
## Output 5.8 nM

## Input Next record, please: `O=C(Nc1cc(Cn2c(=O)[nH]c(=O)c3ccccc32)cnc1Cl)[C@H]1CCNC1`
## Output 40 nM

## Input Next record, please: `CC(C)(C)OC(=O)N1CC[C@H](C(=O)Nc2cncc(Cn3c(=O)[nH]c(=O)c4ccccc43)c2)C1`
## Output > 100 nM

## Input Next record, please: `O=C(Nc1cc(Cn2c(=O)[nH]c(=O)c3ccccc32)cnc1F)[C@H]1CCN(CCC2CC2)C1`
## Output 1 nM

## Input Next record, please: `CC(C)(C)OC(=O)N1CC[C@H](C(=O)Nc2cc(Cn3c(=O)[nH]c(=O)c4ccccc43)ccc2Cl)C1`
## Output 9.1 nM

## Input Next record, please: `O=C(Nc1cc(Cn2c(=O)[nH]c(=O)c3ccccc32)cnc1F)[C@H]1CCN(C(=O)C2CC2)C1`
## Output 4.5 nM

## Input Next record, please: `CC(C)(C)OC(=O)N1CC[C@H](C(=O)Nc2cc(Cn3c(=O)[nH]c(=O)c4ccccc43)cnc2Cl)C1`
## Output 12.2 nM
